- target.or.system: Penicillin-binding protein 2x (Streptococcus pneumoniae serotype 4 (strain ATCC BAA-334 / TIGR4))
- Sequence (P14677 whole entry): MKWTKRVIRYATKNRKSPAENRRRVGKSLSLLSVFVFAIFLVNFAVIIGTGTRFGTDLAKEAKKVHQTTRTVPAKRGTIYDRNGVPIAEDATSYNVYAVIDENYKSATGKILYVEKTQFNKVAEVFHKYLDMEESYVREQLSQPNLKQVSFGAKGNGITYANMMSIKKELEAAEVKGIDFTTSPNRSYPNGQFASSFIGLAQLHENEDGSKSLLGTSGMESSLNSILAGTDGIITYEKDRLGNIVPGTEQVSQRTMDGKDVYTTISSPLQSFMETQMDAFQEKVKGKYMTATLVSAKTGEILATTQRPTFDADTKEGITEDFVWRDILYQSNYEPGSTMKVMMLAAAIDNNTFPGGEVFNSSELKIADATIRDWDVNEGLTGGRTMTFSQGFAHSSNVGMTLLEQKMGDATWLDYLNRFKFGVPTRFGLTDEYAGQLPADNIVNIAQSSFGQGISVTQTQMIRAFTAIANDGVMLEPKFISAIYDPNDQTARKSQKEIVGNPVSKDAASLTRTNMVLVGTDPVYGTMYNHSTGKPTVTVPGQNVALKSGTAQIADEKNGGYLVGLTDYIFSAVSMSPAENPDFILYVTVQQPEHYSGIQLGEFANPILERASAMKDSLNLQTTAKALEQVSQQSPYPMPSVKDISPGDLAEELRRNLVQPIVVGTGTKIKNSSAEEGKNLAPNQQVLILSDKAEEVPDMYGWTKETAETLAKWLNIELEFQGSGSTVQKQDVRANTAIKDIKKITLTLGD
- experimental.protocol: Displacement of Biocillin FL from Streptococcus pneumoniae 3665 PBP2X
quantity.kind: IC50 (nM)
# unit: nM | format: bare number

Q. Quick one: IC50 for CC1(C)S[C@@H]2[C@H](NC(=O)Cc3ccccc3)C(=O)N2[C@H]1C(=O)O [PENICILLIN G] ?
A. 123

Q. Quick one: IC50 for C[C@@H](O)[C@H]1C(=O)N2C(C(=O)O)=C([C@H]3CCCO3)S[C@H]12 [FAROPENEM] ?
A. 606

Q. Quick one: IC50 for CO/N=C(\C(=O)N[C@@H]1C(=O)N2C(C(=O)O)=C(COC(N)=O)CS[C@H]12)c1ccco1 [CEFUROXIME] ?
A. 33

Q. Quick one: IC50 for CC1(C)S[C@@H]2[C@H](NC(=O)[C@H](N)c3ccc(O)cc3)C(=O)N2[C@H]1C(=O)O [AMOXICILLIN] ?
A. 257

Q. Quick one: IC50 for C[C@@H](O)[C@H]1C(=O)N2C(C(=O)O)=C(SCCNC=N)C[C@H]12 [IMIPENEM ANHYDROUS] ?
A. 1980

* * *

For each entry below, report its IC50 value.
- target.or.system: Penicillin-binding protein 2B (Streptococcus pneumoniae serotype 4 (strain ATCC BAA-334 / TIGR4))
- Sequence (P0A3M5 whole entry): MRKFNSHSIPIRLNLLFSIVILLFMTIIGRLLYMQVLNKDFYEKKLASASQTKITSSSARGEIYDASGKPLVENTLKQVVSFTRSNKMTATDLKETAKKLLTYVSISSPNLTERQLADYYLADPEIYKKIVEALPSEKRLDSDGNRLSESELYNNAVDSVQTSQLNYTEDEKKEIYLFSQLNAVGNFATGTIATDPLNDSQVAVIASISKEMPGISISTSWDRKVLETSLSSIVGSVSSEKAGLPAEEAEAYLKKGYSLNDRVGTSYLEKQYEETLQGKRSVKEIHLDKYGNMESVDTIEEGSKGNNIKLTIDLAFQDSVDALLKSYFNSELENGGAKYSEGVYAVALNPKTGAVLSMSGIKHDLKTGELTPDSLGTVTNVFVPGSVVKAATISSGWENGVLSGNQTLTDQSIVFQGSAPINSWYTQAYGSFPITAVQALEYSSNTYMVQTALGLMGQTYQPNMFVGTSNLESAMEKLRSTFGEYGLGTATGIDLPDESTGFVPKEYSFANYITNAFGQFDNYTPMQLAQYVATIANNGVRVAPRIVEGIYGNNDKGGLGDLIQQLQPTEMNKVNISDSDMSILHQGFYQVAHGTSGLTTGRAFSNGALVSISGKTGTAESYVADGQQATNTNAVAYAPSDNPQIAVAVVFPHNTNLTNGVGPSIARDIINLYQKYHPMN
- experimental.protocol: Displacement of Biocillin FL from Streptococcus pneumoniae 2527 PBP2B
# unit: nM | format: bare number

Q. Quick one: IC50 for "CC1(C)S[C@@H]2[C@H](NC(=O)[C@H](N)c3ccc(O)cc3)C(=O)N2[C@H]1C(=O)O" ?
A. 90.3

Q. Quick one: IC50 for C[C@@H](O)[C@H]1C(=O)N2C(C(=O)O)=C(SCCNC=N)C[C@H]12 [IMIPENEM ANHYDROUS] ?
A. 207

Q. Quick one: IC50 for "CC1(C)S[C@@H]2[C@H](NC(=O)Cc3ccccc3)C(=O)N2[C@H]1C(=O)O" ?
A. 287

Q. Quick one: IC50 for "C[C@@H](O)[C@H]1C(=O)N2C(C(=O)O)=C([C@H]3CCCO3)S[C@H]12" ?
A. 35

Q. Quick one: IC50 for "CO/N=C(\C(=O)N[C@@H]1C(=O)N2C(C(=O)O)=C(COC(N)=O)CS[C@H]12)c1ccco1" ?
A. 6230
